test: Quantitative High-Throughput drug screen in 47 multiple myeloma cell lines against the NCATS MIPE library collection: INA6_PLB cell viability assay (AID 1918965; note: nearly all actives have a fitted effect of over 55% in size)
particulars: INA6 myeloma viability, CellTiter-Glo ATP luminescence, 48 h; series mostly up to 45.8 µM
Results filed as inconclusive are left out. Calls of active or inactive are those of the source. Calls come from the whole dose curve; as a rule, active = well fitted cell-killing curve with a large enough effect; inconclusive = small, poorly fitted or top-dose-only effect, or effect the other way; inactive = no such curve, though single readings can be large or run the other way.
Permitted responses: active, inactive

CCn1c(-c2nonc2N)nc2cnc(Oc3cccc(NC(=O)c4ccc(OCCN5CCOCC5)cc4)c3)cc21; active
Oc1cccc(-c2nc(N3CCOCC3)c3oc4ncccc4c3n2)c1; active
O=C1CCCC2=C1C(c1[nH]ncc1Cl)N=C(Nc1nc3ccccc3o1)N2 (stereo not drawn); active
Cn1cnc2c(F)c(Nc3ccc(Br)cc3Cl)c(C(=O)NOCCO)cc21; active

// outcome(item) with item = `CN[C@@H](C)C(=O)N[C@H]1CCCC[C@H]2CC[C@@H](C(=O)N[C@@H](c3ccccc3)c3cn(CCCCc4ccc(CCCCn5cc([C@@H](NC(=O)[C@@H]6CC[C@@H]7CCCC[C@H](NC(=O)[C@H](C)NC)C(=O)N76)c6ccccc6)nn5)cc4)nn3)N2C1=O`
active

Which result was noted for this compound in the test: `CCc1cc(Nc2nccc(-c3c(-c4ccc(OC)c(C(=O)Nc5c(F)cccc5F)c4)nc4ccccn34)n2)c(OC)cc1N1CCC(N2CCN(S(C)(=O)=O)CC2)CC1`
active

Record request — test call for `O=C(C1CC1)N1CC[C@@H](Cn2c(-c3ccc(-c4ccc5occc5c4)cc3)nc3cnccc32)C1`
active

So what was the verdict on `Cc1cc(SCc2sc(-c3ccc(C(F)(F)F)cc3)nc2C)ccc1OCC(=O)O` in this test?
active

State the result this test recorded for CCC(C)n1ncn(-c2ccc(N3CCN(c4ccc(OC[C@H]5CO[C@](Cn6cncn6)(c6ccc(Cl)cc6Cl)O5)cc4)CC3)cc2)c1=O (stereo partly drawn) .
inactive

Dear all, I need the recorded test outcome for CCn1cc(C(=O)O)c(=O)c2cc(F)c(N3CCNC(C)C3)c(F)c21 (stereo not drawn) , thank you.
inactive

How was `CCN(c1ccccc1)c1cc(NC)[n+](C)c(C)n1` classified in this test?
inactive

For this compound, state the assay outcome: `O=C(O)CCc1ccc(NCc2cccc(Oc3ccccc3)c2)cc1`
inactive

// return assay outcome for `COc1ccc2c3n(c(=NC(=O)c4cccnc4)nc2c1OC)CCN3`
active

Query: recorded result category for `O=C(NOC[C@H](O)CO)c1ccc(F)c(F)c1Nc1ccc(I)cc1F` in this test
active

Could you kindly confirm the outcome this assay logged for `Nc1cccc(S(=O)(=O)N2CCCN(S(=O)(=O)c3ccc4c(c3)OCCO4)CC2)c1` ?
inactive

GET /call?item= `Nc1ncnc2nc(-c3ccc(N4CCOCC4)nc3)cc(-c3cccc(Br)c3)c12` returns the recorded outcome of this test.
active

Outcome? `CCCn1c(=O)c2[nH]c(C34CC5CC3C[C@@H](C5)C4)nc2n(CCC)c1=O`
inactive

Outcome logged for `CNC[C@H](O)c1cccc(O)c1` in this assay:
inactive

====

test: Quantitative High-Throughput drug screen in 47 multiple myeloma cell lines against the NCATS MIPE library collection: RPMI8226_ATCC cell viability assay (AID 1919871); note: nearly all actives have a fitted effect of over 30% in size
particulars: RPMI8226 myeloma viability, CellTiter-Glo ATP luminescence, 48 h; series mostly up to 45.8 µM
Records with an inconclusive call do not appear. Activity calls are given as the source filed them. Calls come from the whole dose curve; as a rule, active = well fitted cell-killing curve with a large enough effect; inconclusive = small, poorly fitted or top-dose-only effect, or effect the other way; inactive = no such curve, though single readings can be large or run the other way.
Your answer must be one of the following: active, inactive

CCOC(=O)C1=C[C@]2(CC)CCCN3CCc4c(n1c1ccccc41)[C@@H]32; active
COc1cc2c(cc1OC)CN(CCc1ccc(NC(=O)c3cccc4c(=O)c5cccc(OC)c5[nH]c34)cc1)CC2; inactive
CNC(=O)c1ccc(N2C(=S)N(c3ccc(C#N)c(C(F)(F)F)c3)C(=O)C2(C)C)cc1F; inactive
CC(C)OC(=O)C1=CN(C(=O)c2ccc(F)c(F)c2)CC(C)(C)c2c1[nH]c1ccccc21; inactive
Cc1cc(SCc2sc(-c3ccc(C(F)(F)F)cc3)nc2C)ccc1OCC(=O)O; active

How was `CC(C)(Sc1ccc(CCN(CCCCC2CCCCC2)C(=O)NC2CCCCC2)cc1)C(=O)O` classified in this test?
active

Assay outcome for `Cc1cnc(NC(=O)C2=C(O)c3ccccc3S(=O)(=O)N2C)s1` : what was it?
inactive

Any idea what this test logged for `COc1ccccc1-c1cccc(-c2c(O)c3cc(C#N)c(Cl)cc3[nH]c2=O)c1` ?
inactive

How did this test come out for CCN(CC)CCCC(C)Nc1nc(C)cc(Nc2ccc3nc(C)cc(N)c3c2)n1 (centres undefined) ?
inactive

====

test: P-glycoprotein substrates identified in KB-3-1 adenocarcinoma cell line, qHTS therapeutic library screen (AID 1346986); note: nearly all actives have a fitted effect of over 60% in size;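 note: potency is the fitted concentration of half-maximal effect; potency is for cytotoxicity meaning loss of cell viability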
particulars: KB-3-1 parental cells viability, CellTiter-Glo, 72 h; series mostly up to 44.5 µM
Records with an inconclusive call do not appear. The source made the active and inactive calls. Calls come from the whole dose curve; as a rule, active = well fitted inhibition curve with a large enough effect; inconclusive = small, poorly fitted or top-dose-only effect; inactive = no such curve, though single readings can be large or run the other way.
assay metric: Potency

CN1CCN(CCCN2c3ccccc3Sc3ccc(C(F)(F)F)cc32)CC1; inactive
COc1cc(F)c(F)c(Nc2ccc(I)cc2F)c1NS(=O)(=O)C1(C[C@H](O)CO)CC1; inactive
Cc1cccc(-c2nn(C(=S)Nc3ccccc3)cc2-c2ccnc3ccccc23)n1; inactive
NC(=O)c1cnccn1; inactive
CC(C=CC1=C(C)CCCC1(C)C)=CC=CC(C)=CC(=O)O; inactive
CCN(CC)CCCC(C)Nc1ccnc2cc(Cl)ccc12 (stereo not given); inactive
CCCc1nn(C)c2c(=O)[nH]c(-c3cc(S(=O)(=O)N4CCN(C)CC4)ccc3OCC)nc12; inactive
CCOc1cc(N2CCC(O)CC2)ccc1Nc1ncc2c(n1)N(C)c1ccccc1C(=O)N2C; 8.2 µM (active)
CO[C@@H]1[C@H](N(C)C(=O)c2ccccc2)C[C@H]2O[C@]1(C)n1c3ccccc3c3c4c(c5c6ccccc6n2c5c31)C(=O)NC4; 1.3 µM (active)

Give Potency for `COc1c(Cl)cc2c([nH]c3cnccc32)c1NC(=O)c1cccnc1C`
inactive

====

test: Quantitative High-Throughput drug screen in 47 multiple myeloma cell lines against the NCATS MIPE library collection: Delta47_JCRB cell viability assay (AID 1918925; note: nearly all actives have a fitted effect of over 45% in size)
particulars: Delta47 myeloma viability, CellTiter-Glo ATP, 48 h; series mostly up to 45.8 µM
Results filed as inconclusive are left out. Active and inactive are the calls of the source. The call rests on the fitted dose curve; in most records, active means well fitted cell-killing curve with a large enough effect; inconclusive means small, poorly fitted or top-dose-only effect, or effect the other way; inactive means no such curve, though single readings can be large or run the other way.
Write down one outcome, taken from true (active), false (inactive)

Some solved entries appear below for comparison.
CC(C[N+](C)(C)C)OC(N)=O (stereo unspecified); false
NC(=O)c1cnccn1; false
C[C@H](NC(=O)Cc1cc(F)cc(F)c1)C(=O)N[C@@H]1C(=O)N(C)c2ccccc2-c2ccccc21; true
CCOC(=O)C1=C[C@]2(CC)CCCN3CCc4c(n1c1ccccc41)[C@@H]32; true

Write down the call the test reported for this molecule. Item: `NC[C@H](O)c1ccc(O)c(O)c1`
false

How was `CCn1c(-c2nonc2N)nc2cnc(Oc3cccc(NC(=O)c4ccc(OCCN5CCOCC5)cc4)c3)cc21` classified in this test?
true

GET /call?item= `Cc1[nH]c(=O)c(C#N)cc1-c1ccncc1` returns the recorded outcome of this test.
true

Called result for `CC1(C)CNc2cc(NC(=O)c3cccnc3NCc3ccncc3)ccc21`
false

Kindly provide the recorded test outcome for the following molecule: O=C1CCC(N2C(=O)c3ccccc3C2=O)C(=O)N1 (stereo unspecified)
false

Name the outcome recorded for `Cc1csc(NC(=O)c2sc3nc4c(c(C(F)(F)F)c3c2N)CCC4)n1` in the assay.
false

Check the results log: what was the call for `Nc1cccc(S(=O)(=O)N2CCCN(S(=O)(=O)c3ccc4c(c3)OCCO4)CC2)c1` ?
true

====

test: qHTS of pediatric cancer cell lines to identify multiple opportunities for drug repurposing: Primary screen for control Hh wild type fibroblast cells (AID 1347106);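 note: a drop in luminescence marks cytotoxicity and a rise apparent proliferation; nearly all actives have a fitted effect of over 55% in size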
particulars: Hh wild-type fibroblast viability, CellTiter-Glo luminescence, 48 h; series mostly up to 46 µM
Inconclusive results are not listed. Calls of active or inactive are those of the source. Calls come from the whole dose curve; as a rule, active = well fitted cell-killing curve with a large enough effect; inconclusive = small, poorly fitted or top-dose-only effect; inactive = flat fitted curve, though single readings scatter.
// one of T (active), F (inactive), no free text

Sample answers from the record:
CC(C)(C)OC(=O)CN(Cc1ccc(Cl)cc1)Cc1ccc([N+](=O)[O-])s1; F
O=NN(CCCl)C(=O)NCCCl; F
COc1ccc(C2=N[C@H](c3ccc(Cl)cc3)[C@H](c3ccc(Cl)cc3)N2C(=O)N2CCNC(=O)C2)c(OC(C)C)c1; F

Test call for this molecule, please: `CC1(C)CNc2cc(NC(=O)c3cccnc3NCc3ccncc3)ccc21`
F

Recorded call for `CNC(=O)c1ccc(N2C(=S)N(c3ccc(C#N)c(C(F)(F)F)c3)C(=O)C2(C)C)cc1F` ?
F

// param item: `Cc1cc2c(C(C)C)c(O)c(O)c(C=O)c2c(O)c1-c1c(C)cc2c(C(C)C)c(O)c(O)c(C=O)c2c1O` ; yields the recorded call
F

Lab log entry: `Cc1cc(Nc2nc(N[C@@H](C)c3ncc(F)cn3)ncc2Cl)n[nH]1` — outcome as called in the assay?
F

What call does the record list for CN(C)c1ccc(C2Nc3ccc4ccccc4c3C3=C2C(=O)CC(C)(C)C3)cc1Br (stereo not drawn) ?
F

Hello, I am checking results. What call was entered for `CCOC(=O)C1=C[C@]2(CC)CCCN3CCc4c(n1c1ccccc41)[C@@H]32` ?
F

Hi, do you know how `CCOC(=O)N[C@@H]1CC[C@@H]2[C@@H](C1)C[C@H]1C(=O)O[C@H](C)[C@H]1[C@@H]2C=Cc1ccc(-c2cccc(F)c2)cn1` came out in this test?
F

Could you check what this test reported for `COc1ccc([C@@H]2CC(=O)c3c(O)cc(O[C@@H]4O[C@H](CO[C@@H]5O[C@@H](C)[C@H](O)[C@@H](O)[C@@H]5O)[C@@H](O)[C@H](O)[C@@H]4O)cc3O2)cc1O` ?
F

Source listed as PubChem BioAssay (NCATS).
